System: 377384-186-R-J1-PDC complex spheroid viability
Test: Anticancer human tumor 377384-186-R-J1-PDC patient-derived pancreatic carcinoma cell line growth inhibition [RAS]; active = viability on the fitted dose curve at most 10% of control; inactive = the rest
Settings: second compound 1 µM; first compound 3.16 µM
// classify into active, inactive

Molecule | Answer Label
CC(=O)OC12COC1CC(O)C1(C)C(=O)C(O)C3=C(C)C(OC(=O)C(O)C(NC(=O)OC(C)(C)C)c4ccccc4)CC(O)(C(OC(=O)c4ccccc4)C21)C3(C)C (stereo not given) + C=CC(=O)N1CCN(c2nc(OCC3CCCN3C)nc3c(F)c(-c4nc(N)cc(C)c4C(F)(F)F)c(Cl)cc23)C(C)C1 | inactive
C[C@@H](NC(=O)c1ncnc(N)c1Cl)c1ncc(C(=O)Nc2cc(C(F)(F)F)c(Cl)cn2)s1 + C#Cc1c(F)ccc2cc(O)cc(-c3ncc4c(N5CC6CCC(C5)N6)nc(OCC56CCCN5CC(F)C6)nc4c3F)c12 | active

Identify the outcome logged in this assay for the molecule shown: CCC(CC)c1cc(NC2CCC(N)C2)n2nccc2n1 (stereo not given) + C=CC(=O)N1CCN(c2nc(OCC3CCCN3C)nc3c(F)c(-c4nc(N)cc(C)c4C(F)(F)F)c(Cl)cc23)C(C)C1
active

And what about the molecule Cc1nc(N2CCC3(CC2)COC(C)C3N)c(CO)nc1Sc1ccnc(N)c1Cl (stereo not given) + C=CC(=O)N1CCN(c2nc(OCC3CCCN3C)nc3c(F)c(-c4nc(N)cc(C)c4C(F)(F)F)c(Cl)cc23)C(C)C1 ?
inactive

What about this molecule? CCC(CC)c1cc(NC2CCC(N)C2)n2nccc2n1 (stereo not given) + C#Cc1c(F)ccc2cc(O)cc(-c3ncc4c(N5CC6CCC(C5)N6)nc(OCC56CCCN5CC(F)C6)nc4c3F)c12
active

Likewise for CC(Nc1ccc2c(c1)OCCn1cc(N3C(=O)OCC3C(F)F)nc1-2)C(N)=O (stereo not given) + C=CC(=O)N1CCN(c2nc(OCC3CCCN3C)nc3c(F)c(-c4nc(N)cc(C)c4C(F)(F)F)c(Cl)cc23)C(C)C1 ?
inactive

Lookup NC1c2ccccc2OC12CCN(c1cnc3c(N4CCCc5ncccc54)n[nH]c3n1)CC2 (stereo not given) + C#Cc1c(F)ccc2cc(O)cc(-c3ncc4c(N5CC6CCC(C5)N6)nc(OCC56CCCN5CC(F)C6)nc4c3F)c12
active

Queued: C[C@@H](NC(=O)c1ncnc(N)c1Cl)c1ncc(C(=O)Nc2cc(C(F)(F)F)c(Cl)cn2)s1 + C=CC(=O)N1CCN(c2nc(OCC3CCCN3C)nc3c(F)c(-c4nc(N)cc(C)c4C(F)(F)F)c(Cl)cc23)C(C)C1
inactive

Next: CC(C)NCC(C(=O)N1CCN(c2ncnc3c2C(C)CC3O)CC1)c1ccc(Cl)cc1 (stereo not given) + C#Cc1c(F)ccc2cc(O)cc(-c3ncc4c(N5CC6CCC(C5)N6)nc(OCC56CCCN5CC(F)C6)nc4c3F)c12
active

Entry CC(Nc1ccc2c(c1)OCCn1cc(N3C(=O)OCC3C(F)F)nc1-2)C(N)=O (stereo not given) + C#Cc1c(F)ccc2cc(O)cc(-c3ncc4c(N5CC6CCC(C5)N6)nc(OCC56CCCN5CC(F)C6)nc4c3F)c12 please
active

----------
Tested on: 377384-186-R-J1-PDC complex spheroid viability
Test: Anticancer human tumor 377384-186-R-J1-PDC cell line growth inhibition [RAS];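 note: spheroids exposed to compounds for seven days before readout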
Conditions: second compound 0.03 µM; first compound 0.003 µM; stronger effect = lower value
Measured Parameter: viability, T/C (%)
Provide the reading as a plain figure in %.

Test system 377384-186-R-J1-PDC complex spheroid viability; read-out viability, T/C; what value for CCc1c2c(nc3ccc(O)cc13)-c1cc3c(c(=O)n1C2)COC(=O)[C@]3(O)CC + CCn1c(-c2cc(N3CCN(C)CC3)cnc2C(C)OC)c2c3cc(ccc31)-c1csc(n1)CC(NC(=O)C1CC1C)C(=O)N1CCCC(N1)C(=O)OCC(C)(C)C2 ?
2.09

What about this molecule? CC1(C)CCC(Nc2ncc(C(F)(F)F)c(-c3c[nH]c4c(P(C)(C)=O)c(C#N)ccc34)n2)CN1 (centres undefined) + CCn1c(-c2cc(N3CCN(C)CC3)cnc2C(C)OC)c2c3cc(ccc31)-c1csc(n1)CC(NC(=O)C1CC1C)C(=O)N1CCCC(N1)C(=O)OCC(C)(C)C2
2.69

Follow-up item: CCc1c2c(nc3ccc(O)cc13)-c1cc3c(c(=O)n1C2)COC(=O)[C@]3(O)CC + CCn1c(-c2cccnc2C(C)OC)c2c3cc(ccc31)N1CCOC(CC(NC(=O)C(C(C)C)N(C)C(=O)C3(F)CCN(C(=O)C#CC(C)(C)N(C)C)CC3)C(=O)N3CCCC(N3)C(=O)OCC(C)(C)C2)C1
34.7

Item: CC1(C)CCC(Nc2ncc(C(F)(F)F)c(-c3c[nH]c4c(P(C)(C)=O)c(C#N)ccc34)n2)CN1 (centres undefined) + CCn1c(-c2cccnc2C(C)OC)c2c3cc(ccc31)N1CCOC(CC(NC(=O)C(C(C)C)N(C)C(=O)C3(F)CCN(C(=O)C#CC(C)(C)N(C)C)CC3)C(=O)N3CCCC(N3)C(=O)OCC(C)(C)C2)C1
73.4
